Reference for the values: the supplement of paper PMC11208160

test_protocol: recombinant barcode read abundance after kanamycin selection (control-corrected) (log10(CPM+1)); higher = more efficient recombination; sequences stand for … in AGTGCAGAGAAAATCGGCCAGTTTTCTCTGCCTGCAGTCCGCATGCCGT…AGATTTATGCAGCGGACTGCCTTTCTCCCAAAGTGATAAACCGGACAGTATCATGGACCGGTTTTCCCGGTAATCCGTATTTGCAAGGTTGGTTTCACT; site = the 11-nt target;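 note: IS621 recombinase and bridge RNA in Escherichia coli cells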
test_readout: recombinant barcode read abundance (log10)

seq: TAACTCTCTTGGGTTCTAACCTGTTGCCT (site TTACTCTCTAG)
experimental_value: 0.145

seq: GGACGATCTTGGGTTCTAACCTGTTGCCT (site GGACGATCTAG)
experimental_value: 1.54

seq: GGAGAAGCTTGGGTTCTAACCTGTTGCCT (site GGAGAGGCTAG)
experimental_value: 1.15

seq: CCGCCTGCTTGGGTTCTAACCTGTTGCCT (site CCGCCTGCTAG)
experimental_value: 0.0789

seq: CGTGGAGCTTGGGTTCTAACCTGTTGCCA (site CGTGGAGCTTG)
experimental_value: 0.836

seq: AACCATCCTTGGGTTCTAACCTGTTGCCT (site AACCATCCTAG)
experimental_value: 1.51

seq: TATAAGACTTGGGTTCTAACCTGTTGCAC (site TATAAGACTGT)
experimental_value: 0.755

seq: CGTAAGACTTGGGTTCTAACCTGTTGCCT (site CGTAAGACTAG)
experimental_value: 0.489

seq: TCTTTAGCTTGGGTTCTAACCTGTTGCAG (site TCTTTAGCTCT)
experimental_value: 0.236

seq: CCGCCGGCTTGGGTTCTAACCTGTTGCCT (site CCGCCTGCTAG)
experimental_value: 0.0797
